TGT: DD(E), soluble protein fragment of fibrin (human) (UniProt P02671)
TEST DETAILS: direct titration of the TRITC probe (0.1 µM) with DD(E) up to about 32 µM, fluorescence anisotropy plotted as % probe bound
pKd: −log10 of the molar value. Numbered stars: 1 amine (or outer) side, 2 acyl side, 3 side chain; on linkers, the order of the positions; unused ones are H or OH. Bridge positions count the residues as written; N and C are the ends. TRITC = tetramethylrhodamine dye; Cysteamine = C(CS[*:2])N[*:1]; Ahx = NCCCCCC(=O)O
QUANTITY: pKd

1 = {TRITC-Ahx}-QWECPYGLCWIQ-NH2 (disulfide 4-9) [TRITC-Tn6 peptide (cyclic form)]
2 = {TRITC-Ahx}-QWEC(Cysteamine)PYGLC(Cysteamine)WIQ-NH2 [TRITC-Tn6-MDS]
Query block: Just tell me: smaller pKd value, 1 or 2 ? Respond using the label that marks the chosen record.
Result block: 2
